Values from patent US7888527B2

- Target system: human S1P1 receptor (Homo sapiens)
- Sequence (P21453 whole entry): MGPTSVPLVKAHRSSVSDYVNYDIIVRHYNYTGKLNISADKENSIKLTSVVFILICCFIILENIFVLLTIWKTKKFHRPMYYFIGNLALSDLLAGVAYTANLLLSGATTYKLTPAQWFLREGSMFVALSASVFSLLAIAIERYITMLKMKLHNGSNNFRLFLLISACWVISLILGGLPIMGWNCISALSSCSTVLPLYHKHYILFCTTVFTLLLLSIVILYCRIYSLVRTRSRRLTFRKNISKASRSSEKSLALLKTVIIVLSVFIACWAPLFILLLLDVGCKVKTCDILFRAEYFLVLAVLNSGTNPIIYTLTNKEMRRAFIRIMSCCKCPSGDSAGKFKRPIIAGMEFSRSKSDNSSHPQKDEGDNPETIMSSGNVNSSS
- Protocol summary: [32P]S1P binding assay, HEK293T membranes
- Parameters: expressed in transfected cells; host or cells: HEK293T, transient transfection; membranes
- Measurement context: read-out: pKi S1P1 (converted)
Each entry below carries its reported Ki.
Kindly provide the numeric value in nM only, without the unit symbol.

Record excerpt, results attached:
CCCCCCCCc1ccccc1NC(=O)[C@H](N)COP(=O)(O)O : 891
CCCCCCc1cccc(NC(=O)[C@H](N)COP(=O)(O)O)c1 : 61.7
CCCCCCCCCCCCC/C=C/[C@@H](O)[C@@H](N)COP(=O)(O)O [Compound S1P, Sphingosine 1-phosphate, reference compound] : 1.1

stdin: State the recorded Ki for this entry: CCCCCCCc1cccc(NC(=O)[C@H](N)COP(=O)(O)O)c1
stdout: 13.5

stdin: Now this one: CCCCCCCCc1cccc(NC(=O)[C@H](N)COP(=O)(O)O)c1
stdout: 13.8
